For each of the molecules below, state its growth.
- Test system: TK-10 renal
- test details: NCI-60 one-dose screen, 48 h (100 = growth as untreated, 0 = no growth, -100 = all killed)
- test conditions: 10 µM unless noted
This is part of a sample that, as a whole, favours compounds with a hit. Of some 83,000 tested, about 20% had one in any assay. Active and inactive are the calls of the source. The calls were made as follows: active = growth percent below 10; inactive = the rest.

Qu. So what's the measured growth for this one? `CC1(C)C(=O)CC[C@]2(C)[C@H]3C(=O)C=C4[C@@H]5C[C@@](C)(C(=O)NCCNCCN)CC[C@]5(C)CC[C@@]4(C)[C@]3(C)CC[C@@H]12`
Ans. 147% (inactive)

Qu. Another molecule: `O=S(=O)(NCCNc1cc(-c2cn(-c3ccccc3)nc2-c2cccc(O)c2)ccn1)c1cccc(F)c1`
Ans. 56% (inactive)

Qu. What do you get for `COc1cc(-c2cc(-c3nc4ccc(F)cc4[nH]3)[nH]n2)cc(OC)c1OC` ?
Ans. 63.7% (inactive)

Qu. Another: `COc1ccc(-c2nc(Nc3ccc(-c4nc5ccccc5[nH]4)cc3)nc(N3CCOCC3)n2)cc1`
Ans. 43.9% (inactive)

Qu. Try the molecule `Nc1ccccc1NC(=O)c1ccc(CN2CCC/C(=C\c3ccccn3)C2=O)cc1`
Ans. 14.2% (inactive)

Qu. Entry to check: `C=C1CC[C@@H](C(=O)OC)Cc2nc(C)ccc21`
Ans. 101% (inactive)

Qu. Also `Cc1cccc(C)c1NC(=O)CSC(=S)N1CCCCC1` ?
Ans. 89% (inactive)

Qu. Same read-out for `Cn1nc(-c2ccccc2)c2c(-c3ccccc3)onc2c1=O` ?
Ans. 53% (inactive)

Qu. Now consider `CC[C@]12C=CCN3CC[C@@]4(c5cc([C@H]6CCC(=O)N6)c(OC)cc5N(C)[C@H]4[C@@](O)(C(=O)OC)[C@@H]1OC(C)=O)[C@@H]32` .
Ans. 106% [2.5 µM] (inactive)

* * *

- System: PC-3 prostate
- test details: NCI-60 one-dose screen, 48 h (100 = growth as untreated, 0 = no growth, -100 = all killed)
- test conditions: 10 µM unless noted
About 83,000 compounds went through this panel and 20% of them were active in at least one assay; those are over-represented in the sample as a whole.
endpoint name: growth (%)
Provide the reading as a plain figure in %.

Qu. Report growth for NC(Cc1ccc(O)cc1)C(=O)N/N=C/c1ccccc1O (stereo unspecified) please.
Ans. 89.3

Qu. Next: `Nc1nc(N)c2nc3c(nc2n1)CCCCCCCCCC3`
Ans. 39.2

Qu. Cool, now `O=[N+]([O-])c1cccc(/C=N\Nc2ccccc2)c1`
Ans. 67

Qu. Continue with `CCOC(=O)N1CCN(CCCCOc2ccc(C(C)(C)CC)cc2)CC1`
Ans. 71.5

Qu. Please give the result for `C[C@]12CC[C@@H]3c4ccc(O)cc4CC[C@H]3[C@@H]1C[C@H](O)[C@@H]2O` too.
Ans. 92.4

Qu. And then `O=C1/C(=C\c2ccc(Br)o2)SC(=S)N1CCc1ccc(O)cc1` , what is it?
Ans. 77.2

* * *

- Tested on: HOP-92 NSCLC
- test details: NCI-60 one-dose screen, 48 h (100 = growth as untreated, 0 = no growth, -100 = all killed)
- test conditions: 10 µM unless noted
Compounds without any hit were thinned out: in the full panel of roughly 83,000, 20% have a hit. Activity calls are given as the source filed them. The calls were made as follows: active = growth percent below 10; inactive = the rest.
endpoint name: growth

Qu. Could you tell me which growth is on file for COC(=O)[C@]12CC[C@@H](C)[C@H](C)[C@@H]1C1=CC[C@@H]3[C@@]4(C)C[C@@H](O)OC[C@](C)(C=O)C4C(=O)C[C@@]3(C)[C@]1(C)CC2 (stereo partly drawn) ?
Ans. -28.6% (active)

Qu. Item: `c1cnc2[nH]cc(-c3csc(-c4cn(CCCN5CCCCC5)c5ccccc45)n3)c2c1`
Ans. 35.1% (inactive)

Qu. Quick one: `CC1(C)NCCC[C@]2(C)[C@H]3CC[C@@H]4[C@H]5[C@H](C(=O)/C=C/c6ccccn6)CC[C@]5(CO)CC[C@@]4(C)[C@]3(C)CC[C@@H]12`
Ans. 35.6% (inactive)

Qu. Ok, now `C[C@]12CC[C@@H]3c4ccc(O)cc4CC[C@H]3[C@@H]1C[C@H](O)[C@@H]2O`
Ans. 99.2% (inactive)

Qu. Another: `O=C(NO)c1ccc(Cn2c(=O)n(-c3ccccc3)c(=O)c3ccccc32)cc1`
Ans. 48.4% (inactive)

Qu. Then `Oc1ccccc1/C=N\NC(=S)Nc1ccc(F)cc1` ?
Ans. 46.4% (inactive)

Qu. Try this compound too: `CCN(CC)C(=O)CCCCCn1c2ccccc2c2c3c(c4c5ccccc5[nH]c4c21)C(=O)N(O)C3=O`
Ans. 78.5% (inactive)

Qu. What do you have for `Cc1ccc(S(=O)(=O)Nc2ccc(-c3cc(-c4cccc(F)c4)c(C#N)c(N)n3)cc2)cc1` ?
Ans. -39.3% (active)
